# target.of.assay: PARP1 (Homo sapiens, UniProt P09874)
# Sequence (P09874 whole entry): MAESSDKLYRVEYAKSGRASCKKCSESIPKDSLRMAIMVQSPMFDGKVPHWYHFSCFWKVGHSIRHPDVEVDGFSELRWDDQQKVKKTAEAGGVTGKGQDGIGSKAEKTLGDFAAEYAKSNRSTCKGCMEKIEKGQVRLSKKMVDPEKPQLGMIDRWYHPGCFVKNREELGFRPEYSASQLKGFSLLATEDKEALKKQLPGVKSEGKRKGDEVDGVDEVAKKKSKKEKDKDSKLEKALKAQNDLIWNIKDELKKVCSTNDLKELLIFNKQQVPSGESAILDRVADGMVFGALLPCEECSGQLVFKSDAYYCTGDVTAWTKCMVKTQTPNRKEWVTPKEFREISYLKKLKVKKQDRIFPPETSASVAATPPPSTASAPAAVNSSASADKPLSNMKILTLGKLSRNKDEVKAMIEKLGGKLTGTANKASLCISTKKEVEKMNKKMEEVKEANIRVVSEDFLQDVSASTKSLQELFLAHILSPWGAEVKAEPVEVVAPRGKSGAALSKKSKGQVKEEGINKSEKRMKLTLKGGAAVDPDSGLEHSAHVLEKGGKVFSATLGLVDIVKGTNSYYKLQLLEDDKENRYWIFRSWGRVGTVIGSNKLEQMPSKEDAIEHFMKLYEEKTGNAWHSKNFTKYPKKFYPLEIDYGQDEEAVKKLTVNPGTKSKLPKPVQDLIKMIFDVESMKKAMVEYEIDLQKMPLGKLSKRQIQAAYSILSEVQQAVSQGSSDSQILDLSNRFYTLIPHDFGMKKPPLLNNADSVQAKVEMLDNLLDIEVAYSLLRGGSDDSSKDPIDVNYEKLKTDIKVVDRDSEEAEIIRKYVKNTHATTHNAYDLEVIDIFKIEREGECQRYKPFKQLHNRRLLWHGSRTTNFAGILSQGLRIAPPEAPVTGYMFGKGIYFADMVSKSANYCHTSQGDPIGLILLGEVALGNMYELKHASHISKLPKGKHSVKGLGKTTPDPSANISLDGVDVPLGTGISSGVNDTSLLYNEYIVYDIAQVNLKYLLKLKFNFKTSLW
# assay.explanation: PARP trapping assay in U2OS cells
# Type: cell-based
# Parameters: endogenous in cells; host or cells: U2OS
# experimental.parameters: U2OS cells, MMS, 4 hrs; read-out: PARP Trapping (U2OS)
Quick list: IC50 per entry.

compound: CC1(C(=O)N2CC(c3cccc(C(=O)N[C@@H](C(=O)N4CCC(OC5CCN(CC(=O)N6CCN(C(=O)c7cc(Cc8n[nH]c(=O)c9ccccc89)ccc7F)CC6)CC5)CC4)C4CCCCC4)c3F)CCC2(C)C)CC1 (stereo partly drawn)
IC50: 0.01 to 0.1 µM
--
compound: O=C(N[C@@H](C(=O)N1CCN(CC23CCC(C(=O)N4CCN(C(=O)c5cc(Cc6n[nH]c(=O)c7ccccc67)ccc5F)CC4)(CC2)CO3)CC1)C1CCCCC1)c1cccc(C2CCCN(C(=O)CNC3CC3)C2)c1 (stereo partly drawn)
IC50: 0.01 to 0.1 µM
--
compound: O=C(N[C@@H](C(=O)N1CCC(OC2CCN(CC(=O)N3CCN(C(=O)c4cc(Cc5n[nH]c(=O)c6ccccc56)ccc4F)CC3)CC2)CC1)C1CCCCC1)c1cccc(C2CCCN(C(=O)C3CC3)C2)c1F (stereo partly drawn)
IC50: 0.01 to 0.1 µM
--
compound: CCOc1cc(OC)ccc1CNCC(=O)N1CCC[C@H](c2cccc(C(=O)N[C@@H](C(=O)N3CCN(CC4CCN(CC(=O)N5CCN(C(=O)c6cc(Cc7n[nH]c(=O)c8ccccc78)ccc6F)CC5)CC4)CC3)C3CCCCC3)c2)C1
IC50: 0.01 to 0.1 µM
--
compound: O=C(CN1CCN(CC2CCN(C(=O)c3c(F)cc(-c4cnccn4)cc3F)CC2)CC1)N1CCN(C(=O)c2cc(Cc3n[nH]c(=O)c4ccccc34)ccc2F)CC1
IC50: 0.01 to 0.1 µM
--
compound: CCc1cccc(-c2cnc(C(=O)NCCCCCNCC(=O)N3CCN(C(=O)c4cc(Cc5n[nH]c(=O)c6ccccc56)ccc4F)CC3)c(NC(=O)CNCc3cccc(C)c3)c2)c1
IC50: 0.1 to 1 µM
--
compound: CCc1cccc(-c2cnc(C(=O)N3CCC(CN4CCN(CC(=O)N5CCN(C(=O)c6cc(Cc7n[nH]c(=O)c8ccccc78)ccc6F)CC5)CC4)CC3)c(NC(=O)CNCc3cccc(C)c3)c2)c1
IC50: 0.01 to 0.1 µM
--
compound: COC12CCC(CNCC(=O)N3CCCC(c4cccc(C(=O)N[C@@H](C(=O)N5CCN(CC6CCN(CC(=O)N7CCN(C(=O)c8cc(Cc9n[nH]c(=O)c%10ccccc9%10)ccc8F)CC7)CC6)CC5)C5CCCCC5)c4)C3)(CC1)OC2 (stereo partly drawn)
IC50: 0.1 to 1 µM
--
compound: CCc1cccc(-c2cnc(C(=O)N3CCC(CN4CCN(CC(=O)N5CCN(C(=O)c6cc(Cc7n[nH]c(=O)c8ccccc78)ccc6F)CC5)CC4)CC3)c(OC(F)(F)F)c2)c1
IC50: 0.01 to 0.1 µM

###

# System: MDA-MB-436 cells
# assay.explanation: Cell proliferation assay (MDA-MB-436)
# Format: cell-based
# experimental.parameters: Homo sapiens, 168 h, 7 days
# Method: Cells are counted, diluted to desired density and 40 μL of cell suspension is added into each 384-well tissue-culture treated plates. Plates are incubated in Tissue Culture incubator at 37° C./5% C02 overnight. Next day, 40 nl test compounds that are prepared from source plates are transferred to the seeded cells from overnight. Plates are incubated at 37° C./5% C02 for a total of 7 days. […]
Quick list: IC50 per entry.

compound: CCc1cccc(-c2cnc(C(=O)N3CCN(CC4CCN(CC(=O)N5CCN(C(=O)c6cc(Cc7n[nH]c(=O)c8ccccc78)ccc6F)CC5)CC4)CC3)c(NC(=O)CNCc3cc(C)no3)c2)c1 [Compound I-233]
target.of.assay: MDA-MB-436 cells
IC50: 10 to 100 nM
--
compound: CC(C)(C)OC(=O)N1CCCC(c2cccc(Oc3cnnc(N4CCC(OC5CCN(CC(=O)N6CCN(C(=O)c7cc(Cc8n[nH]c(=O)c9ccccc89)ccc7F)CC6)CC5)CC4)c3)c2)C1 (centres unmarked) [Compound I-870]
target.of.assay: MDA-MB-436 cells
IC50: < 10 nM
--
compound: O=C(CN1CCC(OC2CCN(C(=O)c3ncc(-c4ccccc4)cc3F)CC2)CC1)N1CCN(C(=O)c2cc(Cc3n[nH]c(=O)c4ccccc34)ccc2F)CC1 [Compound I-709]
target.of.assay: MDA-MB-436 cells
IC50: < 10 nM
--
compound: CCc1cccc(-c2cnc(C(=O)N3CCC(CN4CCN(CC(=O)N5CCN(C(=O)c6cc(Cc7n[nH]c(=O)c8ccccc78)ccc6F)CC5)CC4)CC3)c(NC)c2)c1 [Compound I-418]
target.of.assay: MDA-MB-436 cells
IC50: < 10 nM
--
compound: CCc1cccc(-c2cnc(C(=O)NC34CCC(CN5CCN(CC(=O)N6CCN(C(=O)c7cc(Cc8n[nH]c(=O)c9ccccc89)ccc7F)CC6)CC5)(CC3)OC4)c(NC(C)=O)c2)c1 [Compound I-469]
target.of.assay: MDA-MB-436 cells
IC50: < 10 nM
